Data origin, for the record: patent US12291522B2

- SYSTEM: Gal3 (Human Galectin-3) in THP-1 cells (Homo sapiens, UniProt P17931)
- Construct: host or cells: THP-1
- Sequence (P17931 whole entry): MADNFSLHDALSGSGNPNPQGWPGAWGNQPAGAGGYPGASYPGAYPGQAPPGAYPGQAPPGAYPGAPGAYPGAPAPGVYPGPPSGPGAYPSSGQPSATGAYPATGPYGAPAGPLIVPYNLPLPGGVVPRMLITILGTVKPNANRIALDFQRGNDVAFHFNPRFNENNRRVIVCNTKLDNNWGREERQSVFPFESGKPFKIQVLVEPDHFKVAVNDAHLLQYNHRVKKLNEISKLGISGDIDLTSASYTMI
- EXPERIMENT_NOTES: ELISA Gal3 Degradation Assay in THP-1 Cells
- Format: cell-based
- MEASUREMENT_CONDITIONS: 48 hours, culture media Gal3 by ELISA, test 2, read-out: Supernatant (IC50) test 2
- Procedure: [formula] ELISA Gal3 Degradation Assay in THP-1 Cells THP-1 cells (ATCC, Cat #TIB-202), a human monocyte cell line derived from leukemia were plated at 2E6 cells/mL in 200 uL/well of RPMI 1640 (ThermoFisher, Cat #11835) in 96-well plates. […] Gal3 levels in culture media and cell lysates were quantified by ELISA assays (Human Galectin-3 DuoSet ELISA kit, R&D Systems, Cat #DY1154) according to manufacturer's instructions. […]
READOUT_NAME: IC50 (nM)

[A] Cc1nc([C@@H]2O[C@H](CO)[C@H](O)[C@H](n3cc(-c4cc(F)c(Cl)c(F)c4)nn3)[C@H]2OCC(=O)N[C@H]2C[C@H](Oc3ccc(C(=O)Nc4ccc5c(c4)CN(C4CCC(=O)NC4=O)C5=O)nc3)C2)n(-c2cc(Cl)ccc2C(F)(F)F)n1 (stereo partly shown)
[B] Cc1nc([C@@H]2O[C@H](CO)[C@H](O)[C@H](n3cc(-c4cc(F)c(Cl)c(F)c4)nn3)[C@H]2OCC(=O)N2CC(COc3ccc(C(=O)Nc4ccc5c(c4)CN(C4CCC(=O)NC4=O)C5=O)nc3)C2)n(-c2cc(Cl)ccc2C(F)(F)F)n1 (stereo partly shown)
[C] Cc1nc([C@@H]2O[C@H](CO)[C@H](O)[C@H](n3cc(-c4cc(F)c(Cl)c(F)c4)nn3)[C@H]2OCC(=O)N[C@H]2C[C@@H](Oc3ccc(C(=O)Nc4cccc5c4CN(C4CCC(=O)NC4=O)C5=O)nc3)C2)n(-c2cc(Cl)ccc2C(F)(F)F)n1 (stereo partly shown)
Arrange the 3 molecules by rising IC50, starting with the smallest. Write the labels in rank order as requested.
B, A, C
